All figures here come from paper PMC7524730.

conditions: phosphorylation at S503
quantity: other

1) LSH (lymphoid-specific helicase; HELLS, PASG, SMARCA6): Lambda Protein Phosphatase (λPP) :: increases
2) LSH (lymphoid-specific helicase; HELLS, PASG, SMARCA6): MAPK1 shRNA knockdown; LY3214996 (MAPK1/2 inhibitor) :: increases
3) LSH (lymphoid-specific helicase; HELLS, PASG, SMARCA6): S503A :: increases
